# Tested Target: FAK (Homo sapiens, UniProt Q05397)
# Construct: FAK Degradation; endogenous in cells; host or cells: H3122
# Sequence (Q05397 whole entry): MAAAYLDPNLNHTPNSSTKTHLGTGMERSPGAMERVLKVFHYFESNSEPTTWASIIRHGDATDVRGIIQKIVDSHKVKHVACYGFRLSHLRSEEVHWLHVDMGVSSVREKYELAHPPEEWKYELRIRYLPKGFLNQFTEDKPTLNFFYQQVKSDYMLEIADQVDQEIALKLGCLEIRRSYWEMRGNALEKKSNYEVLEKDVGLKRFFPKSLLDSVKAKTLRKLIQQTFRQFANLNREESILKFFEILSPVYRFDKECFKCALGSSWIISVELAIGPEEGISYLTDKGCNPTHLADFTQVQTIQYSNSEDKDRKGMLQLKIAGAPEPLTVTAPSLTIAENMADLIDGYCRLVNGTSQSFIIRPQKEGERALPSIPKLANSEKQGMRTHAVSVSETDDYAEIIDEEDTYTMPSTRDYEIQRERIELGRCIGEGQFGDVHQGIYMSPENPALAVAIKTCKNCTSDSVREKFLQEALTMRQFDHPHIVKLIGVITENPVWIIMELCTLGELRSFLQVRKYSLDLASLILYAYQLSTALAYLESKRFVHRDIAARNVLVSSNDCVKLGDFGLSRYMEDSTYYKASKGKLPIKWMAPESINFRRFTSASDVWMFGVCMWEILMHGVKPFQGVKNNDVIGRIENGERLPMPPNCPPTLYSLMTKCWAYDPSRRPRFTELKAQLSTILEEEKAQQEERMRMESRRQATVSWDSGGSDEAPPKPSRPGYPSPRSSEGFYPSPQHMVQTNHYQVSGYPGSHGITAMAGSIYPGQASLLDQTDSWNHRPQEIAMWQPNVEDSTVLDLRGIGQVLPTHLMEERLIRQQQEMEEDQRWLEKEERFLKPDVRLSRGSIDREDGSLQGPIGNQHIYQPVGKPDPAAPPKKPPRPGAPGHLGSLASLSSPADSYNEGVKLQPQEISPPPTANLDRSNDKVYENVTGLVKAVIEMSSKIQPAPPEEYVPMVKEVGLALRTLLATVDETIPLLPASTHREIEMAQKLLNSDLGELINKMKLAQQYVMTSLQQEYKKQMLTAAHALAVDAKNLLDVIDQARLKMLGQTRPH
# Test Protocol: FAK degradation (H3122 cells)
# Assay type: cell-based
# Condition Label: NCI-H3122, Table 3
Metric Name: Dmax
Report as: number unit

Sample records with Dmax:
COc1cc(C2CCN(CCCCC#Cc3cccc4c3CN(C3CCC(=O)NC3=O)C4=O)CC2)c(C)cc1Nc1ncc(Cl)c(Nc2ccccc2S(=O)(=O)C(C)C)n1 (stereo not shown) [compound 95] | 89%
COc1cc(C2CCN(CCCCCC#Cc3cccc4c3CN(C3CCC(=O)NC3=O)C4=O)CC2)c(C)cc1Nc1ncc(Cl)c(Nc2ccccc2S(=O)(=O)C(C)C)n1 (stereo not shown) [compound 94] | 86%
COc1cc(C2CCN(CCCC#Cc3cccc4c3CN(C3CCC(=O)NC3=O)C4=O)CC2)c(C)cc1Nc1ncc(Cl)c(Nc2ccccc2S(=O)(=O)C(C)C)n1 (stereo not shown) [compound 96] | 92%
COc1cc(C2CCN(CC#Cc3ccc4c(c3)CN(C3CCC(=O)NC3=O)C4=O)CC2)c(C)cc1Nc1ncc(Cl)c(Nc2ccccc2S(=O)(=O)C(C)C)n1 (stereo not shown) [compound 97] | 80%
COc1cc(C2CCN(CCCCCC#Cc3cccc4c3C(=O)N(C3CCC(=O)NC3=O)C4=O)CC2)c(C)cc1Nc1ncc(Cl)c(Nc2ccccc2S(=O)(=O)C(C)C)n1 (stereo not shown) [compound 93] | 89%

Quickly give me recorded Dmax for COc1cc(CCNCCCCCC#Cc2ccc3c(c2)CN(C2CCC(=O)NC2=O)C3=O)c(C)cc1Nc1ncc(Cl)c(Nc2ccccc2S(=O)(=O)C(C)C)n1 (stereo not shown) [compound 92]
93%

Quickly give me recorded Dmax for COc1cc(CCNCCCCCC#Cc2cccc3c2CN(C2CCC(=O)NC2=O)C3=O)c(C)cc1Nc1ncc(Cl)c(Nc2ccccc2S(=O)(=O)C(C)C)n1 (stereo not shown) [compound 91]
85%
